# target-or-test-system: GPR139 (Homo sapiens, UniProt Q6DWJ6)
# Sequence (Q6DWJ6 whole entry): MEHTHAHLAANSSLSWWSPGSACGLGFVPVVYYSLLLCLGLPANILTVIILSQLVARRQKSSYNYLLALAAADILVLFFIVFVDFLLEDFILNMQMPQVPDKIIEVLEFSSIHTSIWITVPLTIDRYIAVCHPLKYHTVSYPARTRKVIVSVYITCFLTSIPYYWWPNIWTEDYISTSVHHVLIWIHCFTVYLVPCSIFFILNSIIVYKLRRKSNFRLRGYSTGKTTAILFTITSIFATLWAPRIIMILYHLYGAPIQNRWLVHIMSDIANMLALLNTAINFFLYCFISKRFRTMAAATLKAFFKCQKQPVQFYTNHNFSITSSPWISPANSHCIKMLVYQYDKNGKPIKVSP
# test: GPR139 Agonist titration / agonist counterscreen assay (calcium detection, HEK-GPR139 cells)
# Assay type: cell-based
# Set-up: expressed in transfected cells; host or cells: HEK Aequorin cells, Maxcyte transient transfection
# test-conditions: GPR139 Agonist Activity; fitted dose-response curve
property-measured: Hill Slope

molecule	Hill Slope
Cc1onc(-c2ccccc2Cl)c1C(=O)NNC(=O)CSc1ccccc1[N+](=O)[O-]	0.91
Cc1ccc(CCNC(=O)Cn2cc3c(n2)CCCCC3)cc1	0.72
CC1(c2ccc3c(c2)OCCO3)NC(=O)C(CC(=O)NCC2CCCCC2)C1=O (stereo not shown)	0.92
Cc1ccc(C(=O)NNC(=O)CSc2nnc(Cn3cnc4ccccc43)o2)cc1	0.87
